# Kb values compiled below
- targetUnderTest: UniProt P79218
- Sequence (P79218 whole entry): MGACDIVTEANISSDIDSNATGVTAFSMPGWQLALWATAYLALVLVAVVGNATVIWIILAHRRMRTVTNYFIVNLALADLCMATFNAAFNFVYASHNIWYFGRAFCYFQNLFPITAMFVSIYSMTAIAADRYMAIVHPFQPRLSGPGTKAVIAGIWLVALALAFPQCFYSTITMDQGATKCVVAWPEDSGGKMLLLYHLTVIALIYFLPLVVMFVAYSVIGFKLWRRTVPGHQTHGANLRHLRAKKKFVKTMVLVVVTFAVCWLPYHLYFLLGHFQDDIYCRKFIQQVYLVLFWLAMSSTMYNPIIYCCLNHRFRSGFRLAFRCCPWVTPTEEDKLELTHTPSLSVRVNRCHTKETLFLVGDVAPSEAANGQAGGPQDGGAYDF
- protocolText: Functional potency against Tachykinin receptor 2 (NK2) in rabbit pulmonary artery assay
- conditionContext: read-out: pA2 (converted)
Write it as a number; the unit nM goes unstated.

## Input Supply recorded Kb for O=C1CCC(CCN2CC(N3CCNCC3)C2)(c2ccc(Cl)c(Cl)c2)CN1CC1CC1 (stereo unspecified) here.
## Output 12.6

## Input Return Kb (reported value) for this molecule: O=C1CCC(CCN2CC(N3CCCOCC3)C2)(c2ccc(Cl)c(Cl)c2)CN1Cc1ccccc1 (stereo unspecified)
## Output 2

## Input Retrieve Kb measured for O=C1CCC(CCN2CC(N3CCS(=O)(=O)CC3)C2)(c2ccc(Cl)c(Cl)c2)CN1Cc1ccccc1 (stereo unspecified) and print it.
## Output 1.26

## Input Retrieve Kb measured for NS(=O)(=O)N1CCN(C2CN(CCC3(c4ccc(Cl)c(Cl)c4)CCC(=O)N(CC4CC4)C3)C2)CC1 (stereo unspecified) and print it.
## Output 1.26

## Input Note down Kb recorded for CN(CCO)C1CN(CCC2(c3ccc(Cl)c(Cl)c3)CCC(=O)N(Cc3ccccc3)C2)C1 (stereo unspecified)
## Output 3.16

// next item, Kb requested
## Input Consider the molecule CS(=O)(=O)N1CCN(C2CN(CCC3(c4ccc(Cl)c(Cl)c4)CCC(=O)N(CC4CC4)C3)C2)CC1 (stereo unspecified) and give its recorded Kb.
## Output 3.16
